// reported MIC for each item listed
# Test system: UDH-7 (environmental isolate, S. haemolyticus)
# methodNotes: MIC by broth microdilution
# Format: cell-based
# appliedConditions: Staphylococcus haemolyticus; environmental isolate
// note: answer is a bare numeric in µg/mL

Example results:
compound | targetDesc | MIC [µg/mL]
COC(=O)CC1COc2c(cc3c4c2CCCN4CCC3)-c2c(NC(C)(C)C)n3c(-c4cccc5c4OCCO5)csc3[n+]21 (stereo not drawn) | UDH-7 (environmental isolate, S. haemolyticus) | 12.5
COC(=O)CC1COc2c(cc3c4c2CCCN4CCC3)-c2c(NC(C)(C)C)n3c(-c4ccccc4)c(-c4ccccc4)sc3[n+]21 (stereo not drawn) | UDH-7 (environmental isolate, S. haemolyticus) | 12.5

We now examine a further compound.
stdin: Entry O=C(O)c1cn(C2CC2)c2cc(N3CCNCC3)c(F)cc2c1=O [Ciprofloxacin, ciprofloxacin, reference compound] : reported MIC = ?
stdout: 64
